# Tested on: DLD-1
# Assay method text: NCI tumour cell line growth inhibition, 48 h
Calls of active or inactive are those of the source. No stated cut-off is given here; in the data, active = GI50 up to about 1.1 µM and inactive = higher.
Here the recorded GI50 is given for each entry.
Readout kind: GI50

INSERT INTO results (compound, readout_kind, value_measured) VALUES
  ('Nc1nc(SCCC/C=C/B(O)O)nc2c1ncn2C1OC(CO)C(O)C1O (stereo unspecified)', 'GI50', '> 243 µM (inactive)'),
  ('N=C(N)NS(=O)(=O)c1ccc(NC(=O)c2cccc3cc4ccccc4nc23)cc1', 'GI50', '> 100 µM (inactive)'),
  ('O/N=C1/C(=C/c2ccc(OCc3ccccc3)cc2)CCCC1C(NO)c1ccc(OCc2ccccc2)cc1 (stereo unspecified)', 'GI50', '10.2 µM (inactive)'),
  ('N#C[C@]12CC3(CC[C@H]1CC1(C2)OCCO1)OCCO3', 'GI50', '> 100 µM (inactive)'),
  ('COC(=O)CCC1=NOC(CC2CC(CCC(=O)OC)=NO2)C1 (stereo unspecified)', 'GI50', '> 100 µM (inactive)'),
  ('COC(=O)C(C#N)C1NC(=O)c2ccccc21 (stereo unspecified)', 'GI50', '> 100 µM (inactive)');

* * *

# System: UACC-257
# Assay method text: NCI tumour cell line growth inhibition, 48 h
Active and inactive are the calls of the source. No stated cut-off is given here; in the data, active = GI50 up to about 1.1 µM and inactive = higher.
Possible outcomes: active, inactive

INSERT INTO assay_data (compound, label_value) VALUES
  ('N#C[C@]12CC3(CC[C@H]1CC1(C2)OCCO1)OCCO3', 'inactive'),
  ('Cc1c(N)nc(C(CC(N)=O)NCC(N)C(N)=O)nc1C(=O)NC(C(=O)NC(C)C(O)C(C)C(=O)NC(C(=O)NCCc1nc(-c2nc(C(=O)NCCCNCCCCN)cs2)cs1)C(C)O)C(OC1OC(CO)C(O)C(O)C1OC1OC(CO)C(O)C(OC(N)=O)C1O)c1c[nH]cn1 (configuration not stated)', 'inactive'),
  ('CC(NC(=O)c1ccc(NP(=O)(OCc2ccc([N+](=O)[O-])o2)N(C)CCCCCl)cc1)c1ccc(OCC2CCCCC2)c(C(N)=O)c1 (configuration not stated)', 'inactive'),
  ('COc1ccc(CC2C(=O)NC(C)C(=O)N(C)C3C(=O)N(C)C(Cc4ccc(O)c(c4)Oc4ccc(cc4)C3O)C(=O)NC(C)C(=O)NC(C)C(=O)N2C)cc1 (configuration not stated)', 'active'),
  ('Cc1nc2c(=O)n(-c3ccccc3)c(=O)n(-c3ccccc3)c2o1', 'inactive'),
  ('C1CCC(CC2CCC(NC3=NCCO3)CC2)CC1 (configuration not stated)', 'inactive'),
  ('COC(=O)[C@@H]1C[C@]2(CC=C(C)C)c3ccccc3N(S(=O)(=O)c3ccccc3)[C@@H]2N1C(=O)OC', 'inactive');

* * *

# Tested on: HCT-116
# Assay method text: NCI tumour cell line growth inhibition, 48 h
Active and inactive are the calls of the source. Rule as the data show it: active = GI50 up to about 1.1 µM and inactive = higher.
Classes used: active, inactive

INSERT INTO results (molecule, label_value) VALUES
  ('O=S1(=O)OCCOS(=O)(=O)C1Cl', 'inactive'),
  ('Cc1c(-c2nc(N)c(C#N)c(N)c2C#N)c(=O)oc2ccccc12', 'inactive'),
  ('CCOC(=O)C[n+]1cccc(C2(c3cc4ccccc4[nH]3)OCCO2)c1', 'inactive'),
  ('COc1ccc(C2c3cc4c(c(OC)c3CC3OCC(=O)C32)OCO4)cc1OC (stereo not drawn)', 'active'),
  ('Nn1nnc2ccccc21', 'inactive'),
  ('Cn1cnc(N2CCCC2)c(C#N)c1=S', 'inactive'),
  ('CC1CN(C)c2ccccc2N=C1NN (stereo not drawn)', 'inactive'),
  ('CC(=O)Nc1[nH]n(C)c(=O)c1-c1nnc(C)s1', 'inactive'),
  ('Cc1nc2ccccc2nc1CC(=O)C(=O)Nc1ccc(Cl)cc1Cl', 'inactive'),
  ('COc1ccc(CCCNC(=O)Cc2ccccc2CO)cc1OC', 'inactive'),
  ('Cc1[nH]c2ccccc2c1C(=O)CC1(O)C(=O)Nc2c(Cl)cc(Cl)cc21 (stereo not drawn)', 'inactive'),
  ('CN(C)CCNC(=O)Cn1ccc(=O)c2c([N+](=O)[O-])cccc21', 'inactive'),
  ('CN(C)CCC1(C2=CCCC2)CC/C(=C\c2ccccc2Cl)C1=O (stereo not drawn)', 'inactive'),
  ('O=c1c(Nc2ccccc2)cn(CCOc2ccc(Cl)cc2)c(=O)n1CCOc1ccc(Cl)cc1', 'inactive'),
  ('C/C=N\N1C(=O)c2ccccc2C1=O', 'inactive'),
  ('COc1ccc(/C=C/C(=O)N[C@@H]2C(=O)N3[C@@H]2SC(C)(C)[C@@H]3C(=O)O)cc1', 'inactive'),
  ('Cc1ccc(S(=O)(=O)Nc2cccc(C)c2C)cc1', 'inactive'),
  ('NS(=O)(=O)c1ccc(NC2(C(=O)O)CCCC2)cc1', 'inactive'),
  ('CC(O)c1c2c(cc3c1CC1(C3)Cc3cc4c(c(C(C)O)c3C1)CCC4)CCC2 (stereo not drawn)', 'inactive'),
  ('C/C(=N\Nc1nc2cc(C)ccc2s1)c1ccccn1', 'active'),
  ('Cc1c(-c2cnccn2)ssc1=S', 'inactive'),
  ('COc1cc(OC)c([C@@H]2OC(=O)C3C2C(=O)O[C@H]3c2cc(OC)c(OC)cc2OC)cc1OC (stereo partly drawn)', 'inactive'),
  ('COc1cc2cc(C(=O)N3CC(CCl)c4c3cc(NC(=O)OCc3ccc([N+](=O)[O-])cc3)c3ccccc43)[nH]c2c(OC)c1OC (stereo not drawn)', 'inactive');

* * *

# Tested on: SK-MEL-28
# Assay method text: NCI tumour cell line growth inhibition, 48 h
The source made the active and inactive calls. No stated cut-off is given here; in the data, active = GI50 up to about 1.1 µM and inactive = higher. Where a SMILES comes first, the peptide text is derived from it. The star is where a group is joined. X33 = O=C(c1ccc(-c2ccc(Cl)cc2Cl)o1)*
The reader will find reported GI50 values listed item by item below.
Readout kind: GI50

INSERT INTO results (molecule, readout_kind, value_measured) VALUES
  ('CCOc1ccc(N/C(=C(/C(Cl)=C(/Cl)N2CCCCC2)[N+](=O)[O-])n2nnc3ccccc32)cc1', 'GI50', '18.5 µM (inactive)'),
  ('CCOC(=O)C[n+]1cccc(C2(c3cc4ccccc4[nH]3)OCCO2)c1', 'GI50', '> 100 µM (inactive)'),
  ('O=C(Nc1c(Cl)cccc1Cl)c1c(Cl)c(Cl)c(Cl)c(Cl)c1-c1nc2ccccc2[nH]1', 'GI50', '70.6 µM (inactive)'),
  ('CC(CO)(CBr)COC(=O)c1cc(Br)c(N)c(Br)c1 (configuration not stated)', 'GI50', '> 100 µM (inactive)'),
  ('Oc1c(Cl)c2nccnc2c2ccccc12', 'GI50', '> 100 µM (inactive)'),
  ('CNN1C(=O)c2c(N)c(C#N)c(-c3ccccc3)c(-c3ccccc3)c2C1=O', 'GI50', '> 100 µM (inactive)'),
  ('N#C[C@]12CC3(CC[C@H]1CC1(C2)OCCO1)OCCO3', 'GI50', '> 100 µM (inactive)'),
  ('C=C1C(=O)OC2/C=C(\C)CC(O)/C=C(/CO)CC(OC(=O)/C(C)=C/C)C12 (configuration not stated)', 'GI50', '14.8 µM (inactive)'),
  ('C[N+]12c3ccccc3O[B-]1(c1ccccc1)Oc1ccccc12 (configuration not stated)', 'GI50', '35.1 µM (inactive)'),
  ('COc1cc(C=O)ccc1Oc1nnnn1-c1ccccc1', 'GI50', '72.4 µM (inactive)'),
  ('CCC(C)C(NC(=O)CNC(=O)C(Cc1ccccc1)NC(=O)C1CCCN1C(=O)c1ccc(-c2ccc(Cl)cc2Cl)o1)C(=O)OC (configuration not stated) (X33-PFGI-OMe; configuration not given here)', 'GI50', '27.3 µM (inactive)'),
  ('COc1ccc(Cc2ccc3nc(O)cc(C)c3c2)cc1S(=O)(=O)O', 'GI50', '> 100 µM (inactive)'),
  ('CC(C)[Si](OC1=C(C(=O)N(C)c2cccc(Cl)c2)CCCC1)(C(C)C)C(C)C', 'GI50', '13.6 µM (inactive)'),
  ('CC1(C)OC(=O)C(c2ccsc2)C(=O)O1', 'GI50', '> 100 µM (inactive)'),
  ('Cc1c(N)nc(C(CC(N)=O)NCC(N)C(N)=O)nc1C(=O)NC(C(=O)NC(C)C(O)C(C)C(=O)NC(C(=O)NCCc1nc(-c2nc(C(=O)NCCCNCCCCN)cs2)cs1)C(C)O)C(OC1OC(CO)C(O)C(O)C1OC1OC(CO)C(O)C(OC(N)=O)C1O)c1c[nH]cn1 (configuration not stated)', 'GI50', '> 10 µM (inactive)'),
  ('Cc1cccc(-c2cc(=O)c3cc(C)c(C)c(C(=O)O)c3o2)c1', 'GI50', '> 100 µM (inactive)'),
  ('COC(=O)C1=C(C(=O)OC)SC(=C2SCSC3=C2SC(C(=O)OC)=C(C(=O)OC)C32SC3=C(CCCC3)S2)S1', 'GI50', '> 100 µM (inactive)'),
  ('COc1ccc(-c2c3ccccc3c(-c3ccc(OC)cc3)c3ccccc23)cc1', 'GI50', '> 100 µM (inactive)'),
  ('Cc1cc(=O)oc2c(CNC(C)C(=O)O)c(O)ccc12 (configuration not stated)', 'GI50', '> 100 µM (inactive)'),
  ('CC(=O)Nc1[nH]n(C)c(=O)c1-c1nnc(C)s1', 'GI50', '> 100 µM (inactive)'),
  ('COc1cc(/C=C2\C[C@H]3[C@@H]4CC=C5C[C@@H](O)CC[C@]5(C)[C@H]4CC[C@]3(C)[C@H]2O)cc(OC)c1OC', 'GI50', '25.2 µM (inactive)'),
  ('Nc1ncnc2c1nnn2C1C=CC(CP(=O)(O)O)C1 (configuration not stated)', 'GI50', '> 100 µM (inactive)'),
  ('Cc1cccc(/N=N/c2ccc(O)c(CN(C)C)c2)c1', 'GI50', '19.2 µM (inactive)'),
  ('O=c1cc(-c2ccccc2)oc2cc(OCCCOc3ccc4c(=O)cc(-c5ccccc5)oc4c3)ccc12', 'GI50', '> 100 µM (inactive)'),
  ('CN(C)CCCN1c2ccccc2CCc2ccc([N+](=O)[O-])cc21', 'GI50', '25.5 µM (inactive)'),
  ('CCOC(=O)C1(Cc2ccc(C)cc2)Cc2ccc(C)cc2C1=O (configuration not stated)', 'GI50', '20.2 µM (inactive)'),
  ('COC(=O)c1c(O)ccc2c1c1c(n2CCc2ccccc2)C(=O)c2ccccc2C1', 'GI50', '19.5 µM (inactive)'),
  ('C=CCCC(OCOCCOC)c1cc(C)c(O[Si](C)(C)C(C)(C)C)c(C)c1 (configuration not stated)', 'GI50', '19.5 µM (inactive)'),
  ('N=C(N)NS(=O)(=O)c1ccc(NC(=O)c2ccc3nc4ccccc4c(Nc4ccc(S(=O)(=O)N=C(N)N)cc4)c3c2)cc1', 'GI50', '> 100 µM (inactive)'),
  ('Cc1cccc(-n2c(=S)[nH]c3c(sc(=O)n3-c3ccccc3C)c2=O)c1', 'GI50', '> 100 µM (inactive)'),
  ('CCC/C(=N\NC(=O)c1cc2ccccc2cc1O)C(CC)C(=O)CCC(=O)N(Cc1ccccc1)Cc1ccccc1 (configuration not stated)', 'GI50', '> 100 µM (inactive)'),
  ('COc1cc2c(cc1NC(=O)c1ccccc1)c1c(n2S(=O)(=O)c2ccccc2)CCN(S(=O)(=O)c2ccccc2)C1', 'GI50', '> 100 µM (inactive)');
